assay: E. coli acrAB mutant growth effects, primary screen, E. coli filamentation inducers, strain DRC39, OD650, 24 h (AID 1178); settings: higher = more signal, called active from +8 up or from −8 down;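 further: growth measured as culture turbidity by optical density at 650 nm; test concentration not given here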
measuredParameter: z-score
Please give the numeric answer without any surrounding text.

Here is how some molecules turned out for z-score.
molecule	z-score
CCCNC(=O)OC[C@H]1O[C@H](CCON=Cc2ccc(C(=O)N3[C@H](c4ccc(C)cc4)[C@@H](C)CC[C@H]3C(=O)OC)cc2)C=C[C@@H]1Oc1ccc(OC)cc1	0.567
CC(CCN1CCc2nc(-c3ccccc3)c(-c3ccccc3)cc2C1)=NOC[C@@H](O)COCc1ccco1	0.943
COC(=O)[C@H](C)NC(=O)CCC1CC(OC(=O)NCc2cccc3ccccc23)CC2(CCCC(COC(=O)NCC(c3ccccc3)c3ccccc3)O2)O1 (some centres not stated)	0.0127
C[C@H]1COC(=O)[C@@H]2CCCN2C(=O)[C@@H](C)COC(=O)[C@H](Cc2ccccc2)NC1=O	0.0861
Cc1ccc(S(=O)(=O)OC[C@H]2CN3[C@H](c4ccc(Br)cc4)[C@@H](C)CC[C@H]3C(=O)O2)cc1	1.31

Tell me z-score reported for `CC(C)[C@@H](OCc1ccccc1)[C@H](C)C=NOC[C@@H](O)COCc1ccco1`
0.7

Tell me z-score reported for `C[C@H](ON=C1[C@H]2CCn3c(=O)n(-c4ccccc4)c(=O)n3[C@H]2[C@H](O)[C@@H]2O[C@H]12)c1cn([C@H](CO)Cc2ccccc2)nn1`
0.571
